System: Influenza A virus
Test Name: Anti-influenza activity against Influenza A virus A/Goose/Guangdong/SH7/2013 (H5N1) infected in chicken embryo fibroblast assessed as inhibition of virus-induced cytopathic effect
Type: functional
// values below are reported inhibition (INH)

{"Structure Smiles": "COc1cccc(OC)c1/C=C/C(=O)/C=C/c1ccc(N2CCCCC2)cc1", "inhibition (INH)": "60.7%"}
{"Structure Smiles": "COc1cccc(OC)c1/C=C/C(=O)/C=C/c1ccc(-c2ccccc2)c(C)c1", "inhibition (INH)": "58.93%"}
{"Structure Smiles": "COc1cccc(OC)c1/C=C/C(=O)/C=C/c1ccc(-c2nccs2)cc1", "inhibition (INH)": "60.3%"}
{"Structure Smiles": "COc1cccc(OC)c1C(=O)CCc1ccc(C)cc1", "inhibition (INH)": "29.55%"}
